- ASSAY_EXPLANATION: gradient 5% acetonitrile 3 min, to 50% in 2 min, to 85% in 15 min, held 3 min, 100 µL/min
- CONDITION_PARAMETERS: column: Zorbax Extend-C18 2.1 x 50 mm; eluents: water / acetonitrile, 0.1% formic acid
Mark condition not met for RP-LC retention time values under 800 s, and condition met for everything at or above.

Can Cc1ccc(S(=O)(=O)N2CCCC(Cn3c(C)nc4cccnc43)C2)c(C)c1 (centres undefined) be said to have RP-LC retention time at or above 800 s?
condition not met

Can CCCNC(=O)C1CCN(c2nc3ccc(-c4ccsc4)nc3s2)CC1 be said to have RP-LC retention time at or above 800 s?
condition met

Can O=C(c1cn2ccccc2n1)N1CCN(c2cccc(Cl)c2)CC1 be said to have RP-LC retention time at or above 800 s?
condition not met

Can COc1ccccc1-c1nnc(-c2ccc(-n3ccnc3)nc2)o1 be said to have RP-LC retention time at or above 800 s?
condition not met

Can CC(C)n1nnc2cc(S(=O)(=O)N(C)CC(=O)N3CCN(c4ccccn4)CC3)ccc21 be said to have RP-LC retention time at or above 800 s?
condition not met

Can Cc1ccccc1NS(=O)(=O)c1cc(-c2[nH]ncc2C(=O)N2CCOCC2)oc1C be said to have RP-LC retention time at or above 800 s?
condition not met

Can O=C(NCc1csc(-c2ccccc2)n1)C1CCN(S(=O)(=O)c2cccc(Cl)c2)CC1 be said to have RP-LC retention time at or above 800 s?
condition met

Can COc1ccc(CNC(=O)N2CCC(c3noc(-c4cnccn4)n3)C2)cc1 (centres undefined) be said to have RP-LC retention time at or above 800 s?
condition not met

Can COc1ccc(-c2nc3sc(C(N)=O)c(C)n3c2NC(C)(C)C)cc1 be said to have RP-LC retention time at or above 800 s?
condition not met

Can Cc1ccc2cc(CCC(=O)N3CCN(C4CCCCC4)CC3)c(=O)[nH]c2c1 be said to have RP-LC retention time at or above 800 s?
condition not met

Can CC1=C(c2ccc(Cl)cc2)S(=O)(=O)N=C1N1CCCN(C(=O)CC(C)(C)C)CC1 be said to have RP-LC retention time at or above 800 s?
condition met

Can Cc1csc(-c2cc(S(=O)(=O)NC(C)C)cn2CC(=O)N2CCCC2)n1 be said to have RP-LC retention time at or above 800 s?
condition not met

Can CCn1c(=O)c(SCC(=O)NCC2CCN(Cc3ccc(C)cc3)C2)nc2ccccc21 (centres undefined) be said to have RP-LC retention time at or above 800 s?
condition not met

Can Cc1nn(CC(=O)N2CCC(C)CC2)c(=O)c2c(-n3cccc3)n(-c3ccc(Cl)cc3)nc12 be said to have RP-LC retention time at or above 800 s?
condition met

Can Cc1cc(C)cc(C(=O)N2CCCC(C(=O)NCc3cccs3)C2)c1 (centres undefined) be said to have RP-LC retention time at or above 800 s?
condition met

Can N#Cc1ccc2ccn(CC(=O)N3CCCc4ccccc43)c2c1 be said to have RP-LC retention time at or above 800 s?
condition met

Can CC(C)(C)NC(=O)NC1CCN(C(=O)C2CCC2)C1 (centres undefined) be said to have RP-LC retention time at or above 800 s?
condition not met
